tested on: OVCAR-5 ovarian; assay: NCI-60 one-dose screen, 48 h (100 = growth as untreated, 0 = no growth, -100 = all killed); details: 10 µM unless noted
About 83,000 compounds went through this panel and 20% of them were active in at least one assay; those are over-represented in the sample as a whole.
Value Kind: growth (%)
Quick reminder: number only, in %, skip the unit.

// lookup growth for CCN1CCN(CC(=O)Nc2nc3ccc(NCc4ccc(C)cc4)cc3s2)CC1
80.5

Queued: NS(=O)(=O)c1ccc(C(=O)N=Nc2c(O)[nH]c3c(F)cccc23)cc1
99.8

# iterate: O=C1CCc2c(sc3[nH]c(=S)n(Cc4ccc(Cl)cc4)c(=O)c23)C1
11.7

Entry COC(=O)c1nc(-c2ccccc2)oc1S(=O)(=O)N(C)CCO please
82.5

Try this compound next: Cn1cc(-c2csc(-c3c[nH]c4ccc(F)cc34)n2)c2cnccc21
-12.5

All figures here come from PubChem BioAssay (NCI).
